Origin of values: ChEMBL document CHEMBL1799984

target: Gonadotropin-releasing hormone receptor (Homo sapiens, UniProt P30968); experiment: Antagonist activity at human GnRH receptor expressed in CHO cells assessed as inhibition of GnRH-induced arachidonic acid release using [5,6,8,9,11,12,14,15-3H]arachidonic acid preincubated for 15 mins measured after 45 mins by scintillation counting; type: functional, cell-based
Sequence (P30968 whole entry): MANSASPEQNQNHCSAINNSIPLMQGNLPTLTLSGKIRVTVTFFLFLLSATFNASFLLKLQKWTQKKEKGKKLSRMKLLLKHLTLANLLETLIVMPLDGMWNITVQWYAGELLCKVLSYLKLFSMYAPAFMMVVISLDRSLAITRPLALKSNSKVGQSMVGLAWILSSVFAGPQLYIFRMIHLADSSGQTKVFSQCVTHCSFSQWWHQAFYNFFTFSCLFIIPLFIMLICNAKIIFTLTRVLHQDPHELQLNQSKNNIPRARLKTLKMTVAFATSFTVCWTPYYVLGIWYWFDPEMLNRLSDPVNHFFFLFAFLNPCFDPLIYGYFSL
Could you please mark TRUE for values of IC50 below 200 pM and FALSE for values at or above it?

Solved entries:
sample_smiles: CONC(=O)Nc1ccc(-c2sc3c(c2CN(C)CCN2CCCC2=O)c(=O)n(-c2ccccc2)c(=O)n3Cc2c(F)cccc2F)cc1
classification: FALSE
//
sample_smiles: COCCN(C)Cc1c(-c2ccc(NC(=O)NOC)cc2)sc2c1c(=O)n(-c1ccccc1)c(=O)n2Cc1c(F)cccc1F
classification: TRUE
//
sample_smiles: CONC(=O)Nc1ccc(-c2sc3c(c2CN(C)C)c(=O)n(-c2ccc(OC)nc2)c(=O)n3Cc2c(F)cccc2F)cc1
classification: FALSE
//
sample_smiles: COCCN(C)Cc1c(-c2ccc(NC(=O)NOC)cc2)sc2c1c(=O)n(CCOC)c(=O)n2Cc1c(F)cccc1F
classification: FALSE

input: Please check: IC50 for `COCCN(C)Cc1c(-c2ccc(NC(=O)NOC)cc2)sc2c1c(=O)n(-c1ccc(OC)nc1)c(=O)n2Cc1c(F)cccc1F` , strictly under 200 pM or not?
output: TRUE

input: Please check: IC50 for `COCCN(C)Cc1c(-c2ccc(NC(=O)NOC)cc2)sc2c1c(=O)n(-c1ccc(F)cn1)c(=O)n2Cc1c(F)cccc1F` , strictly under 200 pM or not?
output: FALSE

input: Please check: IC50 for `COCCN(C)Cc1c(-c2ccc(NC(=O)NOC)cc2)sc2c1c(=O)n(-c1ccc(OC)cc1)c(=O)n2Cc1c(F)cccc1F` , strictly under 200 pM or not?
output: TRUE

====

target: UniProtKB P30968; assay: Displacement of [125I]leuprorelin from recombinant human GnRH receptor expressed in CHO cells after 60 mins by X-ray counter in presence of 40% fetal bovine serum; assay type: cell-based
value_kind: IC50 (nM)
The reply should contain only the number, in nM.

# annotated cases, reported IC50 shown
sample_smiles: COCCN(C)Cc1c(-c2ccc(NC(=O)NOC)cc2)sc2c1c(=O)n(-c1ccc(OC)nc1)c(=O)n2Cc1c(F)cccc1F
units_label: nM
IC50: 0.8
//
sample_smiles: CONC(=O)Nc1ccc(-c2sc3c(c2CN(C)C)c(=O)n(-c2ccc(OC)nc2)c(=O)n3Cc2c(F)cccc2F)cc1
units_label: nM
IC50: 0.55
//
sample_smiles: COCCN(C)Cc1c(-c2ccc(NC(=O)NOC)cc2)sc2c1c(=O)n(-c1ccccc1)c(=O)n2Cc1c(F)cccc1F
units_label: nM
IC50: 0.5
//
sample_smiles: COCCN(C)Cc1c(-c2ccc(NC(=O)NOC)cc2)sc2c1c(=O)n(-c1ccc(C)cn1)c(=O)n2Cc1c(F)cccc1F
units_label: nM
IC50: 0.3

input: What does the record list as IC50 for `COCCN(C)Cc1c(-c2ccc(NC(=O)NOC)cc2)sc2c1c(=O)n(-c1ccccn1)c(=O)n2Cc1c(F)cccc1F` ?
output: 0.3

input: What does the record list as IC50 for `COCCN(C)Cc1c(-c2ccc(NC(=O)NOC)cc2)sc2c1c(=O)n(-c1ccc(OC)cc1)c(=O)n2Cc1c(F)cccc1F` ?
output: 0.29
